biological target: Integrin alpha-V/beta-3 (Homo sapiens, UniProt P05106+P06756); test: Inhibition of Vitronectin receptor (alpha V beta 3) binding to vitronectin
Sequence (P05106 27-788 limits assumed): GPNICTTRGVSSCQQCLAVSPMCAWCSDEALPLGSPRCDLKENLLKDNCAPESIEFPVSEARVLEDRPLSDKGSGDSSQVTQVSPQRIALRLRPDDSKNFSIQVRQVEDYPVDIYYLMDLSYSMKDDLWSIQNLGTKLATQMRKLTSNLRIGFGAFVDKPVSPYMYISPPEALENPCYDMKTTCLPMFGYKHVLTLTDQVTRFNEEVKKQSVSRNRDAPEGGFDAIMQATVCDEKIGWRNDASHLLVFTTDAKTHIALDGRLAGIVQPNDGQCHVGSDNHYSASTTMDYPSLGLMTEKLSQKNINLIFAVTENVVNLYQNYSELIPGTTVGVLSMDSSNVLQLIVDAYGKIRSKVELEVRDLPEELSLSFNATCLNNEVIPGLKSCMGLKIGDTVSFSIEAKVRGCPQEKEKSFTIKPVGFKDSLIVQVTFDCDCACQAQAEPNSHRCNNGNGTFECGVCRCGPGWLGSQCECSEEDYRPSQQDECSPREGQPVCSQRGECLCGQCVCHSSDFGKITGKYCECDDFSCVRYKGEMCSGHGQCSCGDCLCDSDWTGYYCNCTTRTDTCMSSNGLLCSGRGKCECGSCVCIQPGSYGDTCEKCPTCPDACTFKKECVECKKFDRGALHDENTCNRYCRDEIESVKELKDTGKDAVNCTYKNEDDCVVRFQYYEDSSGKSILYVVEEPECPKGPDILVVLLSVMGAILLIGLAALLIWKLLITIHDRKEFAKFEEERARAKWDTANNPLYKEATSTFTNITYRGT
Sequence (P06756 31-889 limits assumed): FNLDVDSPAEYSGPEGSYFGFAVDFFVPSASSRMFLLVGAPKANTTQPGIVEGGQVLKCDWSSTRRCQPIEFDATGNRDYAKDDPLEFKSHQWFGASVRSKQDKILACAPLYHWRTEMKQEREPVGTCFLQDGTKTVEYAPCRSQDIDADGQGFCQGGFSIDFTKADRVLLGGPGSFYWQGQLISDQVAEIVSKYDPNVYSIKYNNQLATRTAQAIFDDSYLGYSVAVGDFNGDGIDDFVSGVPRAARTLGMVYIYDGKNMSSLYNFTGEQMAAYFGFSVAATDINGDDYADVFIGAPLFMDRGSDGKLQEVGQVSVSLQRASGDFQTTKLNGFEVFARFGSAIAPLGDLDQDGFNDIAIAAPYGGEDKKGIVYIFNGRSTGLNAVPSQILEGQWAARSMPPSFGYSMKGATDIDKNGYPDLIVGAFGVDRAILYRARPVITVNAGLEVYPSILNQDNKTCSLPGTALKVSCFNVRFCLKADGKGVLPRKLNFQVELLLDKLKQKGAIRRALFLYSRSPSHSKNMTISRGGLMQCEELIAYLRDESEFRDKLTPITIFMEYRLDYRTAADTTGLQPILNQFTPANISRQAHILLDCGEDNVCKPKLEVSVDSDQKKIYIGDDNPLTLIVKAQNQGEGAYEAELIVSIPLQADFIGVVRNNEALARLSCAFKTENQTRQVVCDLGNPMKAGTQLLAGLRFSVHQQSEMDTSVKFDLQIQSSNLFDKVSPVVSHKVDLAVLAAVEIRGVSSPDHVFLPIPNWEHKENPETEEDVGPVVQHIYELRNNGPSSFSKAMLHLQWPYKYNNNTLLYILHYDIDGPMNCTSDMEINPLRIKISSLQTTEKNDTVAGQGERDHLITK
Sequence (P06756 891-1048 limits assumed): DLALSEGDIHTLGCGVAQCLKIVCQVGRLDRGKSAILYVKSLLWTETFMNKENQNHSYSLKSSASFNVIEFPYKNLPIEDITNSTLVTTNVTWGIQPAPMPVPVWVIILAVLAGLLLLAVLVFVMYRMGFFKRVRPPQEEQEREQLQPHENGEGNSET
property_name: pIC50
API: returns pIC50 as number; meaning -log10 of concentration in mol/L.

Incoming: Note pIC50 for the compound shown: NCCCC[C@H](NC(=O)[C@@H]1CCCN1C(=O)[C@H](CO)NC(=O)[C@H](CC(=O)O)NC(=O)CNC(=O)[C@H](CCCN=C(N)N)NC(=O)CN)C(=O)O
Outgoing: 6.68
